Every entry's value here was drawn from the Deep4Chem optical property database.

Quick reference for emission maximum among some molecules
Assay: solvent given as SMILES
Conditions: in C1CCOC1
reported-endpoint: emission maximum (nm)

{"query-smiles": "COc1cc(/C=C/c2ccncc2)c(OC)cc1C=O", "data-value": 448}
{"query-smiles": "Cc1ccc(-n2c3ccccc3c3cc(C=C(C#N)C#N)ccc32)cc1", "data-value": 454}
{"query-smiles": "c1ccc(/C(=C(\\c2ccccc2)c2ccccc2-c2ccc(-c3ccccc3)cc2)c2ccccc2-c2ccc(-c3ccccc3)cc2)cc1", "data-value": 492}
{"query-smiles": "c1cc2ccc3cc4[nH]c(-c5cc6c(cc7ccc8cccc9ccc6c7c89)[nH]5)cc4c4ccc(c1)c2c34", "data-value": 482}
{"query-smiles": "Cc1ccc([C@@H]2C[C@](O)(c3ccccn3)C[C@](O)(c3ccccn3)[C@H]2C(=O)c2ccc(N(c3ccccc3)c3ccccc3)cc2)cc1", "data-value": 495}
{"query-smiles": "C[Si](C)(C)c1ccc(-c2ccc(-c3ccc(-c4ccc(-c5ccc([Si](C)(C)C)cc5)s4)c4nsnc34)s2)cc1", "data-value": 620}
{"query-smiles": "c1ccc2c(-n3cnc4ccccc43)cccc2c1", "data-value": 359}
{"query-smiles": "N#CC(C#N)=Cc1cn(-c2ccccc2)nc1-c1ccccc1", "data-value": 427}
{"query-smiles": "Oc1ccccc1/C=N/c1ccc(Cn2cncn2)cc1", "data-value": 363.99}
